Known remaining activity at 30 µM of a selection of molecules
- TARGET_SYSTEM: rat mGlu3 (Rattus norvegicus (Rat))
- ASSAY_TEXT: mGlu3 Ca2+ flux assay
- Format: cell-based
- CONDITION_CONTEXT: amplitude of response at 30 μM test compound as % of maximal response to glutamate; read-out: rat mGlu3 Glu max (%)
Respond numerically; units are % and should not be typed.

Reference set, count: 5
Cc1cc(NCc2cc3n(n2)CCN(c2ccc(F)cc2)C3=O)ccc1F    1.91
O=C1c2cc(CNc3ccc(Cl)cc3F)nn2CCN1c1ccc(F)cc1    3.18
O=C1c2cc(CNc3ccc(OC(F)F)cc3F)nn2CCN1c1cccc(F)c1    3.43
C[C@@H]1CN(c2ccc(F)cc2)C(=O)c2cc(CNc3ccc(OC(F)F)cc3)nn21    2.46
O=C1c2cc(CNc3cccc(C(F)(F)F)n3)nn2CCN1c1ccc(F)cc1    2.06

Task: Recorded remaining activity at 30 µM of COc1ccc(N(C)Cc2cc3n(n2)CCN(c2ccccc2C)C3=O)cc1 , please.
Result: 0.74

Task: Ok, now O=C1c2cc(CNc3c(F)cc(F)cc3F)nn2CCN1c1ccc(F)cc1
Result: 1.82

Task: Ok, now C[C@H]1CN(c2ccc(F)cc2)C(=O)c2cc(CNc3c(F)cccc3F)nn21
Result: 4.07

Task: Ok, now CN(Cc1cc2n(n1)CCN(c1ccc(F)cc1)C2=O)c1ccccc1Cl
Result: 0.82

###

- TARGET_SYSTEM: rat mGlu3 (Rattus norvegicus (Rat))
- ASSAY_TEXT: mGlu3 Ca2+ flux assay
- Assay type: cell-based
- CONDITION_CONTEXT: amplitude of response at 30 μM test compound as % of maximal response to glutamate; read-out: rat mGlu3 Glu max (%)
Hi all, reminder that labels come from remaining activity at 30 µM, split as L (below 1%), M (1% to below 2%), H (2% or more)

Below are worked cases with known answers.
C[C@H]1CN(c2ccc(F)cc2)C(=O)c2cc(CNc3cc(F)ccc3F)nn21 [Compound 71]    M
O=C1c2cc(CNc3ccc(F)cn3)nn2CCN1c1ccc(F)cc1 [Compound 155]    M
COc1cccc(N(C)Cc2cc3n(n2)CCN(c2ccc(F)cc2)C3=O)c1 [Compound 88]    L
C[C@H]1CN(c2ccc(F)cc2)C(=O)c2cc(CNc3ccc(F)cc3F)nn21 [Compound 76]    L

Task: Exercise: read the entry COc1ccc(N(C)Cc2cc3n(n2)CCN(c2cccc(Cl)c2F)C3=O)cc1 [Compound 135] and state which class it falls under.
Result: H

###

Known pIC50 of a selection of compounds
- TARGET_SYSTEM: rat mGlu3 (Rattus norvegicus (Rat), UniProt P31422)
- Sequence (P31422 23-879): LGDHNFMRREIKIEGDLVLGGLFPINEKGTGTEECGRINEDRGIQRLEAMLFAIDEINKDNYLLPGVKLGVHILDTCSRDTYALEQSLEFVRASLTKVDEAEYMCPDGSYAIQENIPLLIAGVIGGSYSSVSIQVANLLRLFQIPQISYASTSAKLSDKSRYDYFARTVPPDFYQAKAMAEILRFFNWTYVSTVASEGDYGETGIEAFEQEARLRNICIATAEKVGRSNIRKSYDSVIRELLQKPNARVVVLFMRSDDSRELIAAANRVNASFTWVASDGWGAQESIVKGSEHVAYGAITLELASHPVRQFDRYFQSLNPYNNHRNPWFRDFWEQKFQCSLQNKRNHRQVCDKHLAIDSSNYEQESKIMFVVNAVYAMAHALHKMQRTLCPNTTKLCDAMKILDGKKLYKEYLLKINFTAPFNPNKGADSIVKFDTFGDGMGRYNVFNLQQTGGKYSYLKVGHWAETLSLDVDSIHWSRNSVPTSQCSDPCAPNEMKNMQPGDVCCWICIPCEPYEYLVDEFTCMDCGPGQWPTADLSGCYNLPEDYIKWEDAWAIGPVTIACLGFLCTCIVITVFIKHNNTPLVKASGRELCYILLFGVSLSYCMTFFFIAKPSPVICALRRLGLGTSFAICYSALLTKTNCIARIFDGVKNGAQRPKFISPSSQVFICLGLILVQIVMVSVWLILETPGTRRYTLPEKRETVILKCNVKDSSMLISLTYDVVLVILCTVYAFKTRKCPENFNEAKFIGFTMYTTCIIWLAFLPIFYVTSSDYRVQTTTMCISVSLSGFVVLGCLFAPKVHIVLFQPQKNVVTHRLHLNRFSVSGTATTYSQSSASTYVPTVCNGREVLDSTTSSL
- ASSAY_TEXT: mGlu3 Ca2+ flux assay
- Type: cell-based
- CONDITION_CONTEXT: NAM potency, decrease of glutamate EC80 response; >30,000 = no measurable activity; >10,000 = no plateau; read-out: rat mGlu3 IC50
Keep in mind that pIC50 stands for -log10 of concentration in molar terms.

CN(Cc1cc2n(n1)CCN(c1ccc(F)cc1)C2=O)c1cccc(F)c1 [Compound 86]    6.23
N#Cc1cccc(NCc2cc3n(n2)CCN(c2ccc(F)cc2)C3=O)c1 [Compound 11]    5.90
COc1ccc(NCc2cc3n(n2)[C@H](C)CN(c2ccc(F)cc2)C3=O)cc1 [Compound 62]    5.52
COc1ccc(N(C)Cc2cc3n(n2)CCN(c2cccc(OC)c2)C3=O)cc1 [Compound 113]    5.95
CN(Cc1cc2n(n1)CCN(c1ccc(F)cc1)C2=O)c1ccccc1Cl [Compound 84]    5.73

Task: Recorded pIC50 of CN(Cc1cc2n(n1)CCN(c1ccc(F)cc1)C2=O)c1cc(F)cc(F)c1 [Compound 94] , please.
Result: 6.18

Task: Ok, now O=C1c2cc(CNc3cccc(F)c3)nn2CCN1c1ccc(F)cc1 [Compound 7]
Result: 5.98

Task: Ok, now COc1ccc(N(C)Cc2cc3n(n2)CCN(c2ccc(F)c(F)c2)C3=O)cc1 [Compound 97]
Result: 5.97

Task: Ok, now COc1ccc(N(C)Cc2cc3n(n2)CCN(c2c(F)cccc2F)C3=O)cc1 [Compound 110]
Result: 5.79

Task: Ok, now Cc1ccccc1NCc1cc2n(n1)[C@H](C)CN(c1ccc(F)cc1)C2=O [Compound 44]
Result: 5.57

Task: Ok, now C[C@@H]1CN(c2ccc(F)cc2)C(=O)c2cc(CNc3c(F)cc(F)cc3F)nn21 [Compound 79]
Result: 5.89

Task: Ok, now COc1ccc(N(C)Cc2cc3n(n2)CCN(c2cccc(Cl)c2)C3=O)cc1 [Compound 98]
Result: 6.18

Task: Ok, now Cc1cccc(NCc2cc3n(n2)CCN(c2ccc(F)cc2)C3=O)c1 [Compound 8]
Result: 5.87

Task: Ok, now O=C1c2cc(CNc3ccc(Cl)cn3)nn2CCN1c1ccc(F)cc1 [Compound 158]
Result: 6.22

Task: Ok, now O=C1c2cc(CNc3cc(F)ccc3F)nn2CCN1c1ccc(F)cc1 [Compound 29]
Result: 6.29

Task: Ok, now O=C1c2cc(CNc3ccccc3)nn2CCN1c1ccc(F)cc1 [Compound 2]
Result: 5.88

Task: Ok, now Cc1ccc(NCc2cc3n(n2)CCN(c2ccc(F)cc2)C3=O)nc1 [Compound 159]
Result: 5.75

Task: Ok, now COc1ccc(N(C)Cc2cc3n(n2)CCN(c2cccnc2)C3=O)cc1 [Compound 121]
Result: 5.33

Just for reference, patent US9676782B2 is where these values come from.
